- TEST_SUMMARY: Pharmacokinetics in female BALB/c nude mice bearing A375 xenografts, 1 day dosing (PK and PD study): plasma, tumor and brain concentrations, AUC
- Format: in vivo
- RECORDED_CONDITIONS: mouse, plasma, po, 3 mg/kg, 3 mg/kg p.o. BID × 1 day; post 1st dose; 4 h; read-out: Mean Concentration in Plasma ± SEM
ENDPOINT: concentration at 4 h (ng/mL)
Answers are plain numbers, in ng/mL.

(Q) concentration at 4 h for CCN(C)S(=O)(=O)Nc1ccc(F)c(Oc2ccc3ncn([C@H]4COC5(CCN(C6CC7(C6)CN(c6cc8c(cc6F)c(N6CCC(=O)NC6=O)nn8C)C7)CC5)C4)c(=O)c3c2)c1C#N [Compound 26] ?
(A) 3060

----------
- System: A375 human melanoma xenografts
- TEST_SUMMARY: Example 6 efficacy study in A375 human melanoma xenografts (tumor volume, T/C, TGI)
- Format: in vivo, BALB/c nude mice
- RECORDED_CONDITIONS: 10 mg/kg, p.o., BID × 21 days; day 18; Mean ± SEM
Hi there, I'd appreciate the recorded Tumor volume for every entry that follows.

COMPOUND	Tumor volume
CCN(C)S(=O)(=O)Nc1ccc(F)c(Oc2ccc3ncc([C@@H]4COC5(CCN(C6CCC(c7cc8c(cc7F)c(N7CCC(=O)NC7=O)nn8C)CC6)CC5)C4)nc3c2)c1C#N (single isomer, unassigned) [Compound 54]	53 ± 13 mm^3
CCN(C)S(=O)(=O)Nc1ccc(F)c(Oc2ccc3ncn(C4CC5(CCN(C6CCC(c7cc8c(cc7F)c(N7CCC(=O)NC7=O)nn8C)CC6F)CC5)C4)c(=O)c3c2)c1C#N (single isomer, unassigned) [Compound 83]	22 ± 1 mm^3
CCN(C)S(=O)(=O)Nc1ccc(F)c(Oc2ccc3ncn([C@H]4COC5(CCN(C6CC(c7cc8c(cc7F)c(N7CCC(=O)NC7=O)nn8C)C6)CC5)C4)c(=O)c3c2)c1C#N (single isomer, unassigned) [Compound 70]	24 ± 2 mm^3

(Q) Param readout= Tumor volume; system= A375 human melanoma xenografts; entry= Cn1nc(N2CCC(=O)NC2=O)c2cc(F)c(C3CCC(N4CCC5(CC4)CC(n4cnc6ccc(Oc7c(F)ccc(NS(=O)(=O)C8CCCC8)c7C#N)cc6c4=O)C5)CC3)cc21 (single isomer, unassigned) [Compound 93] ; returns value.
(A) 52 ± 4 mm^3

----------
For each entry below, report its GI50 value.
- Tested on: A375-NRAS^Q61K cells
- TEST_SUMMARY: CTGlo Cell Viability Assay, A375-NRAS^Q61K (A375.11) cells, 96 hours
- Type: cell-based, human
- RECORDED_CONDITIONS: Homo sapiens, 96 h, A375.11 (A375-NRAS^Q61K) cells

Some solved cases for reference:
MOLECULE	GI50
CN(CCO)S(=O)(=O)Nc1ccc(F)c(Oc2ccc3ncc(C4CC5(CCN(C6CCC(c7cc8c(cc7F)c(N7CCC(=O)NC7=O)nn8C)CC6)CC5)C4)nc3c2)c1C#N (single isomer, unassigned) [Compound 294]	1000 to 10000 nM
CCN(C)S(=O)(=O)Nc1ccc(F)c(Oc2ccc3ncn([C@H]4COC5(CCN(C6CCC(c7cc8c(cc7F)c(N7CCC(=O)NC7=O)nn8C)CC6F)CC5)C4)c(=O)c3c2)c1C#N (single isomer, unassigned) [Compound 28]	< 1000 nM
CCN(C)S(=O)(=O)Nc1ccc(F)c(Oc2ccc3ncc(CC4CCN(C5CCC(c6cc7c(cc6F)c(N6CCC(=O)NC6=O)nn7C)CC5)CC4)nc3c2)c1C#N (single isomer, unassigned) [Compound 149]	> 10000 nM

Quick batch: GI50 for everything below.
1. CCN(C)S(=O)(=O)Nc1ccc(F)c(Oc2ccc3ncn(C4CC5(C4)CN(C4CCC(c6cc7c(cc6F)c(N6CCC(=O)NC6=O)nn7C)CC4F)C5)c(=O)c3c2)c1C#N (single isomer, unassigned) [Compound 299]
2. CC(C)S(=O)(=O)Nc1ccc(F)c(Oc2ccc3ncn(C4CC5(CCN(C6CCC(c7cc8c(cc7F)c(N7CCC(=O)NC7=O)nn8C)CC6)CC5)C4)c(=O)c3c2)c1C#N (single isomer, unassigned) [Compound 95]
3. CCN(C)S(=O)(=O)Nc1ccc(F)c(Oc2ccc3ncn(C4CC5(CCN(C6CCC(c7ccc(NC8CCC(=O)NC8=O)cc7F)CC6)CC5)C4)c(=O)c3c2)c1F (single isomer, unassigned) [Compound 166]
4. CN(CCO)S(=O)(=O)Nc1ccc(F)c(Oc2ccc3ncn([C@H]4COC5(CCN(C6CC7(C6)CN(c6cc8c(cc6F)c(N6CCC(=O)NC6=O)nn8C)C7)CC5)C4)c(=O)c3c2)c1C#N [Compound 130]
5. CO[C@@H]1CCN(S(=O)(=O)Nc2ccc(F)c(Oc3ccc4ncc(C5CC6(CCN(C7CCC(c8cc9c(cc8F)c(N8CCC(=O)NC8=O)nn9C)CC7)CC6)C5)nc4c3)c2C#N)C1 (single isomer, unassigned) [Compound 284]

(A)
["1000 to 10000 nM", "< 1000 nM", "1000 to 10000 nM", "> 10000 nM", "< 1000 nM"]

The measurements presented in this section are drawn from patent US20260297060A1.
